Reported EC50 at 2 h by item:
experiment: in vitro
test_context: human
readout_name: EC50 at 2 h

Nc1nc(=O)n([C@@H]2CS[C@H](CO)O2)cc1F [FTC (3)]; > 100 µM
Nc1ccn([C@@H]2CS[C@H](CO)O2)c(=O)n1 [3TC (2), (−)-2′,3′-Dideoxy-3′-thiacytidine]; > 100 µM
Cc1cn([C@H]2C[C@H](F)[C@@H](CO)O2)c(=O)[nH]c1=O [FLT (1), 3′-Fluoro-2′,3′-deoxythymidine]; > 100 µM

* * *

System: Cell-Associated Virus (X4)
experiment: Cell-associated transmission assay
Assay type: cell-based, HIV-1
test_context: Human immunodeficiency virus 1, read-out: Cell-Associated Virus CTC EC50
readout_name: EC50

Cc1cn([C@H]2C[C@H](F)[C@@H](CO)O2)c(=O)[nH]c1=O [FLT (1), 3′-Fluoro-2′,3′-deoxythymidine]; > 100 µM
Nc1nc(=O)n([C@@H]2CS[C@H](CO)O2)cc1F [FTC (3)]; 21.9 µM
Nc1ccn([C@@H]2CS[C@H](CO)O2)c(=O)n1 [3TC (2), (−)-2′,3′-Dideoxy-3′-thiacytidine]; 18.4 µM
